Data origin: the supplement of paper PMC9732359

- ASSAY_METHOD_TEXT: protein stability index of a GFP-peptide fusion (yeast GPS) (PSI 1-4); higher = more stable; sorted into four equal gates, so the index is relative within each strain
- CONDITION_PARAMETERS: pdr5∆
Entry flag: 1.0 if protein stability index reaches 3; 0.0 if it does not.

Consider the following illustrative entries.
- SEQUENCE_RECORD: "PDIADIPRTFRTPVPST [SNF5]"
  CAT: 0.0
- SEQUENCE_RECORD: "EIKDAETSCDNYHPMNI [SMC4]"
  CAT: 0.0
- SEQUENCE_RECORD: "QQLLKGLSLSFSKKLDL [DSN1]"
  CAT: 1.0
- SEQUENCE_RECORD: "AVPRDELGRSNYGMIAI [FAS1]"
  CAT: 1.0
- SEQUENCE_RECORD: "QTLGLESFTEELSNELS [MED1]"
  CAT: 1.0

Query string: Given the entry NMNNGGKELDSLDLNNL [PGD1] , answer whether its protein stability index meets or surpasses 3.
Result string: 1.0

Query string: Given the entry GPGGQAALRALARSGLR [RPS14B] , answer whether its protein stability index meets or surpasses 3.
Result string: 0.0

Query string: Given the entry ETISAIEHPMTSAIEVL [RPN1] , answer whether its protein stability index meets or surpasses 3.
Result string: 0.0

Query string: Given the entry GRLNTLVISLAATNETF [IRR1] , answer whether its protein stability index meets or surpasses 3.
Result string: 0.0

Query string: Given the entry GNDNNSDSNANAAVAGV [SWI3] , answer whether its protein stability index meets or surpasses 3.
Result string: 1.0

Query string: Given the entry KTITSGLKYALATGNWG [RPB2] , answer whether its protein stability index meets or surpasses 3.
Result string: 0.0

Query string: Given the entry YIRVNHADKDTFSSSIS [POP8] , answer whether its protein stability index meets or surpasses 3.
Result string: 0.0

Query string: Given the entry IKIEDFVDDMLRDYRFE [SNF5] , answer whether its protein stability index meets or surpasses 3.
Result string: 1.0

Query string: Given the entry SASFSLKNGDKPHMLKF [RPL6A] , answer whether its protein stability index meets or surpasses 3.
Result string: 0.0

Query string: Given the entry TPAELVGKFLGYVSSLV [FAS1] , answer whether its protein stability index meets or surpasses 3.
Result string: 0.0

Query string: Given the entry RQEVTKFAKANIGYVMG [RPN4] , answer whether its protein stability index meets or surpasses 3.
Result string: 0.0

---

- ASSAY_METHOD_TEXT: protein stability index of a GFP-peptide fusion (yeast GPS) (PSI 1-4); higher = more stable; sorted into four equal gates, so the index is relative within each strain
- CONDITION_PARAMETERS: ubr1∆
REPORTED_ENDPOINT: protein stability index
Answers are plain numbers.

- SEQUENCE_RECORD: "FDHNDKKLSINSAARNI [PRE7]"
  RECORDED_NUMBER: 2.83
- SEQUENCE_RECORD: "DLKKLNLNVYIQVFEKP [CDC53]"
  RECORDED_NUMBER: 2.78
- SEQUENCE_RECORD: "NYHPNASITPYKLVNKN [RPN4]"
  RECORDED_NUMBER: 2.05
- SEQUENCE_RECORD: "PQQAQMQQAQFQAQQAQ [SNF2]"
  RECORDED_NUMBER: 3.1
- SEQUENCE_RECORD: "KHGAKKVAKRTKIKPFI [RPL27A]"
  RECORDED_NUMBER: 3.24
- SEQUENCE_RECORD: "KAANFIQNQSPQFNSPY [SWI1]"
  RECORDED_NUMBER: 2.42

Quick one: give me protein stability index for each item below, same order please.
1. GSFKVVKGTNISEKDLV [RPO31]
2. LNKFKKAIFQFVCRGMA [ECM29]

Result string:
1. 3.5
2. 1.92
